B1: Glucocorticoid receptor, residues 419 to 494; numbered along this chain, P04150 (parent)
chain: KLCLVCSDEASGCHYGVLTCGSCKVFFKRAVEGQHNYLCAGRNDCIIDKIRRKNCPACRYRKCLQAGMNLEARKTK

- Variants of: B1
- test: abundance fitness (aPCA) (normalised: wild type 0, dead -1); higher = more abundant; growth selection in yeast, the domain comes from the species named
- experimental parameters: Homo sapiens
quantity: abundance fitness
Give bare numbers.

Check out these entries, answers already filled in.
Form: variant = Q65F ; abundance fitness = -0.045

// abundance fitness lookup, variant = C63Y , result: -0.85

According to the records, this variant A30Y displays abundance fitness of -0.102

The value of abundance fitness measured for the variant L18Y turned out to be 0.098

Looking up V5L , I found its abundance fitness recorded as -0.611

# batch: return abundance fitness for each of the 7 variants below
1. C63I
2. R59Y
3. G16L
4. C3H
5. N36K
6. C20S
7. K49W

RESULT:
1: -0.546; 2: -0.087; 3: -0.558; 4: -0.737; 5: 0.038; 6: -1.4; 7: -0.129

Go through the list and state abundance fitness for each entry.
1. V25P
2. S7G
3. E71Q
4. H35Y

RESULT:
1: -0.614; 2: 0.012; 3: -0.051; 4: -0.08

Go through the list and state abundance fitness for each entry.
1. L18A
2. H35W
3. G12E
4. Y37D
5. R42D

RESULT:
1. 0.097
2. -0.074
3. -0.057
4. -0.144
5. 0.06

Give me abundance fitness for each of these variants, listed below.
1. K53E
2. A72P
3. V25F
4. A30P

RESULT:
0.058
-0.077
-0.005
-0.907

Entry source: the Human Domainome abundance scans (Beltran et al. 2025)
